- Tested on: Hut 78
- assay.method.text: Cytotoxicity MTS, leukemias/lymphomas, Hut 78
- Format: cell-based
- experimental.context: 4-Parameter Curve Fit, NA = not active, read-out: Cytotoxicity IC50 Lymphoma (Cutaneous T cell) Hut 78
reported.metric: pIC50
Notebook: values listed as pIC50 are -log10 of the concentration (mol/L).

# annotated cases, reported pIC50 shown
> print(dat)
                                   compound  target.of.assay  reported.result
1  CCCCCCCCCCCCCCCCC(O)C(C)N (stereo not shown)           Hut 78             4.97
2  CCCCCCCCCCCCCCCC(O)C(C)N (stereo not shown)           Hut 78             5.67

Q: Value lookup for pIC50; key = CCCCCCCCCCCCCCC(O)C(C)N (stereo not shown) [drawing 126]
Ans: 5.06

Q: Endpoint output: pIC50 of CCCCCCCCCCCCCCCC(O)C(N)CC (stereo not shown) [drawing 127] . Value?
Ans: 5.04
